test: yeast display, Sf9 membrane polyspecificity reagent, FACS + sequencing; frameworks hold sequencing errors
assay.endpoint: polyreactivity (PSR sort gate)

1. QVHLVASGGGLVQAGGSLRLSCAASGSIFRRYAKGSYRQAPGKERELGAGISSGGYTNYAASVKGPFTISRDNAKNNVYLQRYSLKPEDTAVYYCAANQYRDVRYRPVDYWGQGTQVTVSS | high polyreactivity
2. QVQLVESGGGLVQAGGSLRLSCAASGRIFEDYMVWYRHAPGKDRELVAAIRWSGGGTYYADSVKGRFTISRDNAKNTVYLQMTSLKPEDTAVYYCATPGTGSVEVYGYWGQGTQVTVSS | low polyreactivity
3. QVQLVESGGGLVQAGGSLRFSCAASGRTIYYNTMGWYRQAPGKERELVAAINYGGSTYYADSVKGRFTISRDNAKNTVYLQMHSLKPEDTAVYYCNAVTRPKTWRYDYWGQGPQVTVSS | high polyreactivity
4. QVQLVESGGGLVQAGGSLRLSCAASGRIYKRYDMGWYRQAPGKERELVAAITGTGGSTYYADSVKGRFTISRDNAKNTVYLQMNSLKPEDTAVYYCAARLYNTYSGFAFGYWGQGTQVTVSS | high polyreactivity
5. QFQLVESGGGLVQAGGSLRLSCAASGRTFIVYAMGWYRQAPGKERELVAGITLGSTNYADSVKGRFTISRDNAKNTVYLQMNSLKPEDTAVYYCAARSSRRGPISEGDYWGQGTQVTVSS | high polyreactivity

Task: Using the record for QVQLVESGGGLVQAGGSLRLSCAASGSTFSRYTMGRYRQAPGKERELVAAIRRSGASTYYADSVKGRFTISRDNAKNTVYLQMNSLKPEDTAVYYFAVGRYRYGYWGQGTQVTVSS , report its polyreactivity (PSR sort gate).
Result: high polyreactivity

Task: I have this sequence here, QVQLVESGGGLVQAGGSLRLTCAASGSTYYSYAMGWYRQATGKERELVAAITSRGDRTYYADSVQGRFTISRDNAKNTVYLQMNSLKPEDTAVYYCAAEQSWQGYAYYYCGQGTQVTVSS , and I need its recorded polyreactivity (PSR sort gate).
Result: high polyreactivity

Task: Using the record for QVQLVESGGGLVQAGGSLRLSCAASGSIFTFYAMGWYRQAPGKERELVATITISTGSTYYADSVKGRFTISRDNAKNTVYLQMNCLKPEDTAVYYCAARRRSAEYNYWGQGTQVTVSS , report its polyreactivity (PSR sort gate).
Result: high polyreactivity

Task: Please look up its polyreactivity (PSR sort gate): QVQLVESGGGLVQAGGSLRLSCAASGSTFSGNAMGWYRQAPGKERELVAGIRQSGDSTYYADSVKGRFTISRDNAKNTVYLQMNSLKPEDTAVYDCNARAFPFGTGVQGFGFGYWGQGTQVTVSS
Result: low polyreactivity

Task: Quick one: polyreactivity (PSR sort gate) of QVQLVESGGGLVQAGGSLRLICAASGRTFGIYAMGWYSPAPGKERELVATISWRGGSTYYADSVKGRFTISRDNAKNSVYLQMNSLKPEDTGVYYCAAGYYPYWGQGTQVTVSS ?
Result: low polyreactivity

Task: Suppose we examine the sequence QVQLVESGGGLVQAGGSLRLSCAASGSTFDYNAMGWYRQAPGKERELVADITGSGASTSYADSVKGRFTISRDNAKNTVYLQMNSLKPEDTAVYYCAATGYSSWTYYTHEYWGQGTQVTVSS ; what polyreactivity (PSR sort gate) value has been reported?
Result: low polyreactivity

###

test: yeast display, Sf9 membrane polyspecificity reagent, FACS + sequencing; frameworks hold sequencing errors
assay.endpoint: polyreactivity (PSR sort gate)

1) QVQLVESGGGLVQAGGSLRLSCAASGRTFRTYTMGWYRQAPGKEREFVAAITSSGASTYYADSVKGRFTISRDNAKNTVYLEMNSLKPEDTAVYYCAARYGRRLVWVPALLYDYWGQGTQVTVSS | high polyreactivity
2) QVQLVESGGGLVQAGGSLRLSCAASGSIFRFYAMGWYRQAPGKEGELVAAITSGGSTNYADSVKGRFTISRDNAKNTVYLQMNSLKPEDTAVSYCAAVVVYFFIYDYWGQGTQVTVSS | low polyreactivity
3) QVQRVESGGGLVQAGGSLRLSCAASGITFSRYAMGWYRPAPGKERELVAAISRSGTRTYYADSVKGRFTISRDNAKNTVYLQMNSLKPEDSAVYYCAAESFASSFDYWGQGTQVTVSS | high polyreactivity
4) QVHLVESGGGLVQAGCSLRLICAASRYIFGYYAMGWYRQAPGKERELVAAISTDGSTDYADSVKVRFTISRYNANNTVDLQMNRLKPEDSALYYCAKELFIVTNGVYIYDSWGEGTQVTVSS | low polyreactivity

Pending sequence:
Task: Could you tell me which polyreactivity (PSR sort gate) is on file for QGQLVESGGGVVQAGGSLRLSSAASRRIFYSYPLGWYRPAPGKERELVAAISSSGGITYYADSVKGRFTISRDNAKNTGSLELNSLKPEDTAVYYCAARRRYKSGYWGQGTQVTVSS ?
Result: high polyreactivity

###

test: yeast display, Sf9 membrane polyspecificity reagent, FACS + sequencing; frameworks hold sequencing errors
assay.endpoint: polyreactivity (PSR sort gate)

Sample records with polyreactivity (PSR sort gate):
1. QVQLVESGGGLVQAGGSLRLSCAASGSTSQTYAMGWYRQAPGKERELVASMTRSGVRTYYADSVKGRFTISRDNAKYTVYLQMNSLKPEDTAVYYCAAKYSYGFYRTGYYWGQGTQVTVSS | high polyreactivity
2. QVQLVESRGGLVQAGGSLRLSCATSGIFVVYALGWYRQAPGKVRELVAAISSGVSTSYADSVKGRFTISRENAKNTVYLQMNSLKPEDTAVYYCNTLWGHKFIVPFRTREFYYWGQGTQVTVSS | low polyreactivity
3. QVQLVESGGGLVQAGGSLRLSCAASGFIFRRYAMGWYRQAPGKERDLVAAIRSDRSTNYADSVKGRFTISLDNAKNTVYLQMNSLKPEDTAVYYCARPYRSHYGWGVRGFDYWGQGTQVTVSS | high polyreactivity
4. QVKLVESGGGLVQAGGSLRFSCAASGSTFTKNARGWYRQAPGKERELVAGISRSGGNTYYADSVMGRFTISRDNSKNTVYLQLNRLKPEDTAVSYCAKVVRGIDSNLDDYWGQGTQVTVSS | high polyreactivity
5. QVQLVESGGGLVQAGGSLRLSCAASGFTFTYYAMGWYRQAPGTERELVAAISWRGTSTFYADSVKGRFTISRDNAKNTVYLQMNSLKPEDTAVYYCAAVGQWGYGYWGLGTQVTVSS | high polyreactivity
6. QVQLVESGGGLVQAGGSLRLSCAASGSNFRVYAMGWYRQAPGKESELVAAIDSGTSTTYADSVKGRFTISRDNAKNTVYLQMNSLKPEDTAVYYCAADGWLWSFTGDGWWFDYWGQGTQVTVSS | low polyreactivity
7. QVQLVESGGGIVQAGGSLRLSCAASGSIFYAYAMGWYRQAPGKERELVAAINRGDSTTYADSVKGRITISRDNAKNTVYLQMNSLKPEDTAVYYCAKSRPSRKYYAGVTGQGDYWGQGTQVTVSS | low polyreactivity
8. QVQLVESGGGLVQAGGSLRLSCAASGSTFYNYVMGWYRQAPAKERELVAAITSRGGRTYYADSVKGRFTISRDNAKNTVSLQMNSLKPEDTAVYYCARDRGYQSGYDYWGQGTQVTVSS | high polyreactivity

Task: Consider the sequence shown here: QVQLVESGGGLVQAGGSLRVSCAASGLTSIHYMGWYRQAPGKERELVATITSSTGSTYYADSVKGRFTISRDNAKNTVYLQMNSLKPEDTAVDYCAAESFGADGPYQPSYDYWGQGTQVTVSS What is its recorded polyreactivity (PSR sort gate)?
Result: low polyreactivity

Task: Look up polyreactivity (PSR sort gate): QVQLVESGGGLVQAGGSLRLSCAASGRIFRGNAMVWSRQAPGKERELVASISWRGASTDYADSVKGRFTISRDNAKNTVYLQMNRMKPEDTAVYYCAARVVWRISVYYVIDYNYWGQGTQVTVSS
Result: high polyreactivity

Task: What value of polyreactivity (PSR sort gate) has been recorded for this entry: QVQLVESGGGLVQAGGSLRLSCAASGRTFRTYTMGWYRQAPGKERELVAAIRSIDGITYYADSVKGRFTISRDNAKTTVDLPKNSLKPEDTAVYYCAARYTASKPMGYWGQGTQVTVSS
Result: high polyreactivity

###

assay: yeast display, Sf9 membrane polyspecificity reagent, FACS + sequencing; frameworks hold sequencing errors
assay.endpoint: polyreactivity (PSR sort gate)

Examples from the recorded data:
1. QVQLVESGGGLVQAGGSLRLSCAASGRIFPGYAMGLYRQAPGKERELVAAISKGGGSTSYADSVKGRFTISRDNAKNTVYFQMNSLKPEDTAVYFCAARQAWRWTYDYWGQGTQVSVSS | high polyreactivity
2. QVQLVESGGGLVQAGGSLRLSCAASGSTFPYNAMGWYRQAPGKERELVAAITGRGGSTYYADSVKGRFTISRDNAKNTVYLQMNSLKPEDTAVYYCGADFWYSYYYWGQGTQVTVSS | high polyreactivity
3. QVQLVESGGGLVQAGGSLRLSCAASGRTFESYAMGWYRQAPGKERELVAAITSTDDRTYYADSVKGRFTISRDNAKNTVYLQMNSLKPEDTAVYYCAVESRRDDFEYDYWGQGTQVTVSS | low polyreactivity
4. QVQLVESGGGLVQAGGSLRLSCAASGSIFGYYAMGWYRQAPGKERELVAAIRGSSGSTYYADSVKGRFTISRDNAKNTVYLQMNSLKPEDTAVYYCAADYRTYVYVYGFRHFDYWGQGTQVTVSS | low polyreactivity
5. QVQLVESGGGLVQAGGSLRLSCAASGSTFRYYTMGWYRQAPGKERELVAAISSSGTRTYYADSVKGRFTISRDYAKNTVYLQMNSLKPEDTAVYYCDTVFLRSDGWRRSNMDYWGQGTQVTVSS | high polyreactivity

Task: Give its polyreactivity (PSR sort gate) value. Item: QVQLVESGGGLVQAGGSLRLSCAATGFTFRYNAMGWYRQAPGKERELGAAISIGGTTNYADSVKGRFTISRDNAKNTVYLQMNSLKPEDTAVYYCNALGTYFRRYDYWGQGTQVTVSS
Result: low polyreactivity

Task: What polyreactivity (PSR sort gate) value was documented for this sequence, QVQLVESGGGLVQAGGSLRLSCAASGSIFVKNAMGWYRQAPGKERELVAAISRSGGSTYYADSVKGRFTISRDNAKYTVYLQMNSLKPEDTAVYYCNAYGSYWDFDEWGQGTQVTVSS ?
Result: high polyreactivity

Task: # query: polyreactivity (PSR sort gate) of entry QVQLVESGGGLVQAGGSLRLSCAASGLNFGRNAIGWYRQAPGKERELVAAISLSGGRTSYADSVKGRFTISRDNEQNTVYLQMNSVKPEDTAFYFCASRSDVYTHDYWGQGTQVTVSS
Result: high polyreactivity

Task: Quick one: polyreactivity (PSR sort gate) of QVHLVESGGGLVQAGGILRLSSPASGSISGWYAMGWSRQEPGKERELVSDMTRGGRTYYADSVKGRFTISRDNAKNTVYLQMNSLKPEDTAVYYCASPSPSYYYRSGWGSYYSWGLGTQVTVSS ?
Result: high polyreactivity

Task: Requested read-out: polyreactivity (PSR sort gate). Entry: QVQLVESGGGLVQAGGSLRLSCAASGFTFRKYAMGWYRPAPGKERELVAGITSGGSTNYADSVKGRFTISRDNAKNTVYLQMNSLKPEDTSVYYCNAARYYAYIGDYWGQGTQVTVSS
Result: high polyreactivity

Task: Given the entry QVQLVESGGGLVQAGGSLRLSCAASGSILRDHAMGWYRQATGKERELVAAITSGDSTHYADSVKGRFTISRDNAKNTVYLQMNSLKPEDTAVYYCATKWSLISIHGYYYWGQGTQVTVSS , report its measured polyreactivity (PSR sort gate).
Result: low polyreactivity
